Data origin: patent US20080194574A1

experimental system: viral kinase pUL-97 (Human cytomegalovirus, UniProt P16788)
Construct: The pUL-97 gene was cloned into a baculovirus vector; GST (glutathione S-transferase) (N); made in house; host or cells: Sf9 insect cells, baculovirus
Sequence (P16788 whole entry): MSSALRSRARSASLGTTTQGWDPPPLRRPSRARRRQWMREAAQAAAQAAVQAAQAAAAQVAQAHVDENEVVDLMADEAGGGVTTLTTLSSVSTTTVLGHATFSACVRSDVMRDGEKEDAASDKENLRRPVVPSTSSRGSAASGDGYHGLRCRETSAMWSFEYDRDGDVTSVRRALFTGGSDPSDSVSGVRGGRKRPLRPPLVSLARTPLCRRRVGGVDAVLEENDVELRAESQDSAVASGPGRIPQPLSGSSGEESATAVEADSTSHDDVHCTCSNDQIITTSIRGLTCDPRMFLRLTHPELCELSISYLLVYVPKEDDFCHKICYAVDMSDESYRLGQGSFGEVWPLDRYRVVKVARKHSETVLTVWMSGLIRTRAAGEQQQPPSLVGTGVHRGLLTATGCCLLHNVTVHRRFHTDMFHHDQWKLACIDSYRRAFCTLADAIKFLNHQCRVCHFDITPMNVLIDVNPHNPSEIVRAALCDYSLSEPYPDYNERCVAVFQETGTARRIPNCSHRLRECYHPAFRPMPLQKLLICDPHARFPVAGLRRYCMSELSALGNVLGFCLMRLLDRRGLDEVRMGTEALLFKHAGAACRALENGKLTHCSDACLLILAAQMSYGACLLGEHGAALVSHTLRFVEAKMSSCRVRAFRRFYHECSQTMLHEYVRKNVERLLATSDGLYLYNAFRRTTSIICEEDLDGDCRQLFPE
measurement protocol: UL97 kinase assay on Immobilon plate
Assay type: biochemical
measurement conditions: inhibition of UL 97 kinase activity; class by IC50 / % inhibition at 10 or 100 μM; read-out: Activity Class [A, B, C]
pIC50: −log10 of the molar value.

compound	experimental system	pIC50
FC(F)(F)c1ccc(-c2cncc(N3CCN(c4ccccc4)CC3)n2)cc1 [compound 193]	viral kinase pUL-97 (Human cytomegalovirus, UniProt P16788)	5.00 to 6.00
Cc1ccc(N2CCN(c3cncc(-c4cc(C)cc(C)c4)n3)CC2)cc1 [compound 177]	viral kinase pUL-97 (Human cytomegalovirus, UniProt P16788)	4.00 to 5.00
CSc1ccc(-c2cncc(N3CCN(c4cccc(Cl)c4)CC3)n2)cc1 [compound 102]	viral kinase pUL-97 (Human cytomegalovirus, UniProt P16788)	5.00 to 6.00
Fc1ccc(-c2cncc(N3CCN(c4ccncc4)CC3)n2)c(F)c1 [compound 46]	viral kinase pUL-97 (Human cytomegalovirus, UniProt P16788)	5.00 to 6.00
CCOc1ccccc1-c1cncc(N2CCN(c3ccc(C)cc3)CC2)n1 [compound 175]	viral kinase pUL-97 (Human cytomegalovirus, UniProt P16788)	4.00 to 5.00
Cc1ccccc1-c1cncc(N2CCN(c3cccc(Cl)c3)CC2)n1 [compound 82]	viral kinase pUL-97 (Human cytomegalovirus, UniProt P16788)	4.00 to 5.00
CC(=O)c1ccc(-c2cncc(N3CCN(c4cccc(Cl)c4)CC3)n2)cc1 [compound 103]	viral kinase pUL-97 (Human cytomegalovirus, UniProt P16788)	5.00 to 6.00
COc1cccc(-c2cncc(N3CCN(c4ccccc4F)CC3)n2)c1 [compound 113]	viral kinase pUL-97 (Human cytomegalovirus, UniProt P16788)	5.00 to 6.00
CC(=O)c1ccc(N2CCN(c3cncc(-c4ccc(F)c(Cl)c4)n3)CC2)cc1 [compound 151]	viral kinase pUL-97 (Human cytomegalovirus, UniProt P16788)	4.00 to 5.00
Cc1cc(C)cc(-c2cncc(N3CCN(c4ccc(F)cc4)CC3)n2)c1 [compound 179]	viral kinase pUL-97 (Human cytomegalovirus, UniProt P16788)	4.00 to 5.00
CSc1ccc(-c2cnc(N)c(N3CCN(c4ccncc4)CC3)n2)cc1 [compound 75]	viral kinase pUL-97 (Human cytomegalovirus, UniProt P16788)	> 6.00
COc1cccc(-c2cncc(N3CCN(c4ccccc4)CC3)n2)c1 [compound 110]	viral kinase pUL-97 (Human cytomegalovirus, UniProt P16788)	5.00 to 6.00
CSc1ccccc1-c1cncc(N2CCN(c3ccncc3)CC2)n1 [compound 166]	viral kinase pUL-97 (Human cytomegalovirus, UniProt P16788)	4.00 to 5.00
O=C(c1ccco1)N1CCN(c2cncc(-c3cccc(CO)c3)n2)CC1 [compound 58]	viral kinase pUL-97 (Human cytomegalovirus, UniProt P16788)	4.00 to 5.00
COc1ccccc1N1CCN(c2cncc(-c3ccc(SC)cc3)n2)CC1 [compound 108]	viral kinase pUL-97 (Human cytomegalovirus, UniProt P16788)	5.00 to 6.00
NC(=O)c1ccc(-c2cncc(N3CCN(c4ccccn4)CC3)n2)cc1 [Comp. 15]	viral kinase pUL-97 (Human cytomegalovirus, UniProt P16788)	> 6.00
COc1ccccc1N1CCN(c2cncc(-c3ccc4ccccc4c3)n2)CC1 [compound 86]	viral kinase pUL-97 (Human cytomegalovirus, UniProt P16788)	5.00 to 6.00
COc1ccc(-c2cncc(N3CCN(c4cccc5[nH]ccc45)CC3)n2)cc1 [compound 38]	viral kinase pUL-97 (Human cytomegalovirus, UniProt P16788)	5.00 to 6.00
